Data credit: paper PMC6117054

- Measured Target: curli (native curli fibers; monomeric unit CsgA) (Escherichia coli)
- Construct: native curli amyloid fibers isolated from E. coli MC4100; mature secreted CsgA (signal peptide removed); 13 kDa monomeric unit; fiber polymer
- Sequence (P28307 21-151): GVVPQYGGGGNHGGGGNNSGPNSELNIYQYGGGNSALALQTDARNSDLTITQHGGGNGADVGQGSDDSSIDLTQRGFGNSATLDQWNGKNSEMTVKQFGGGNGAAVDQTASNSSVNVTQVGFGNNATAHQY
- Measurement Description: depletion (centrifugation) assay, absorbance of free dye at […] nm, saturation fit
Measured Property: pKd
Reminder that pKd means the negative base-10 logarithm of the concentration expressed in mol/L.

// map O=C(O)c1cc(/C=C/c2ccc(/C=C/c3ccc(O)c(C(=O)O)c3)c(F)c2)ccc1O [FSB] to recorded pKd (system: curli (native curli fibers; monomeric unit CsgA) (Escherichia coli))
5.10
